tested on: human bronchial epithelial cells, CFTR corrector, plate reader; assay: rescue of ΔF508 CFTR function, airway epithelium – human bronchial epithelial cells, plate reader, cherry-pick, two tests, dose response (AID 743267); conditions: measured here: test 2 replicate run
Exercise: for every item that follows, state its recorded AC50.

Record O=S(=O)(Nc1ccc(F)cc1Cl)c1ccc(-c2cnc(C3CC3)o2)cc1 , field AC50: 2.23 µM

Record COc1ccc(OC)c(Nc2nc(-c3sc(NC(=O)C(C)(C)C)nc3C)cs2)c1 , field AC50: 2.78 µM

Record COc1c(O[C@@H]2O[C@H](CO)[C@@H](O)[C@H](O)[C@H]2O)cc2c(c1OC)-c1ccc(SC)c(=O)cc1C(NC(C)=O)CC2 (stereo not given in full) , field AC50: > 50 µM

Record CCOC(=O)c1c(C)[nH]c(C(=O)N/N=C\c2ccccc2O)c1C , field AC50: 3.36 µM

Record C#C[C@]1(O)CC[C@H]2[C@@H]3CCc4cc(OC5CCCC5)ccc4[C@H]3CC[C@@]21C , field AC50: 3.31 µM

Record N#C/C(=C(/O)c1ccc(Br)s1)c1nc2ccccc2[nH]1 , field AC50: 3.88 µM

Record COc1ccc(CNS(=O)(=O)c2cc(-c3cc(C)no3)ccc2C(C)C)cc1 , field AC50: 2.16 µM

Record COc1ccc(-c2cc(=O)c3c(O)cc(O)cc3o2)cc1 , field AC50: > 50 µM

Record Cc1cc(C(=O)N/N=C/c2ccc(N(C)C)cc2)c2ccccc2n1 , field AC50: 5.44 µM

Record Cc1ccc(Nc2nc(-c3sc(C)nc3C)cs2)cc1 , field AC50: 0.812 µM

----------
system: human bronchial epithelial cells, CFTR corrector, plate reader; assay: rescue of ΔF508 CFTR function, airway epithelium – human bronchial epithelial cells, plate reader, cherry-pick, two tests, dose response (AID 743267); conditions: measured here: test 2 replicate run
Hi all, reminder that labels come from AC50, split as band A = under 3 µM, band B = from 3 µM up to 10 µM, band C = 10 µM and over

[ask] Sort into band: CC[N+]1(CC)CC2=Cc3ccccc3CC2C1 (stereo not drawn)
[reply] band C

[ask] Sort into band: CN(C)CCNc1ccc2ncn3c4ccc(O)cc4c(=O)c1c23
[reply] band A

[ask] Sort into band: COc1ccc(NC(=O)c2cc(S(=O)(=O)N3CCOCC3)ccc2C)cc1S(=O)(=O)N1CCOCC1
[reply] band C

[ask] Sort into band: CC(=O)Nc1cccc(-c2ccnc3c2CC(C)(C(=O)Nc2ccc4c(c2)OCO4)O3)c1 (stereo not drawn)
[reply] band A

[ask] Sort into band: COc1cccc2c1C(=O)c1c(O)c3c(c(O)c1C2=O)C[C@](O)(C(C)=O)C[C@H]3O[C@@H]1C[C@@H](N)[C@@H](O)[C@@H](C)O1
[reply] band B

[ask] Sort into band: CCOC(=O)C1CCCN(c2ccc([N+](=O)[O-])c3nonc23)C1 (stereo not drawn)
[reply] band C

[ask] Sort into band: O=c1cc(-c2ccccc2)[nH]c2ccc(F)cc12
[reply] band C

[ask] Sort into band: CCOC1=C2CN(S(=O)(=O)c3ccc(C)cc3)CC[C@@H]2N(S(=O)(=O)c2ccc(C)cc2)[C@H](c2ccccc2)C1
[reply] band B

[ask] Sort into band: O=C1c2cccc3c(N4CCCCC4)ccc(c23)C(=O)N1c1cccc(O)c1
[reply] band C

[ask] Sort into band: COc1cccc2c1C(=O)C=C(C)C2=O
[reply] band C

[ask] Sort into band: COc1ccc(NCC(=O)n2c(C)c(C)c3ccccc32)cc1
[reply] band B

[ask] Sort into band: CCOP(=O)(C#Cc1ccccc1)C(O)c1ccc(Br)cc1 (stereo not drawn)
[reply] band C

[ask] Sort into band: O=S(=O)(c1ccc(Br)cc1)N1CCCc2ccccc21
[reply] band C

[ask] Sort into band: COc1ccc(-c2ccnc(-c3ccc(O)cc3)n2)cc1
[reply] band A

[ask] Sort into band: CCc1c(C)nc2ncnn2c1NCCc1ccc(OC)cc1
[reply] band C

[ask] Sort into band: O=C(NCCOc1ccccc1)c1cc([N+](=O)[O-])ccc1N1CCOCC1
[reply] band A

[ask] Sort into band: COc1ccc(C2CN=NC23CCc2ccccc2C3=O)cc1 (stereo not drawn)
[reply] band C

[ask] Sort into band: O=C1c2ccccc2C(=O)c2c1cccc2N(CCO)CCO
[reply] band C

[ask] Sort into band: NS(=O)(=O)c1ccc(Cl)c(S(N)(=O)=O)c1
[reply] band A

[ask] Sort into band: Cc1ccc(C)c(CSc2nc3[nH]ncc3c(=O)[nH]2)c1
[reply] band A

[ask] Sort into band: O=C(NCc1ccccc1)C1Cc2c(-c3cccc(F)c3)ccnc2O1 (stereo not drawn)
[reply] band A

[ask] Sort into band: Cc1ccc(S(=O)(=O)N2CCOCC2)cc1NC(=O)CSc1n[nH]c(N)n1
[reply] band C

[ask] Sort into band: O=C1CCC(CCc2nc3ccccc3[nH]2)(c2ccccc2)C(=O)N1 (stereo not drawn)
[reply] band C

[ask] Sort into band: CC(=Nc1ccccc1O)c1sc2ccccc2c1O
[reply] band C

[ask] Sort into band: Nc1ccc2c3c(cccc13)C(=O)N(c1ccccc1)C2=O
[reply] band C

[ask] Sort into band: COc1ccc(OC)c(/C(C)=N\NC(=O)c2cc3cc(Cl)ccc3n2C)c1
[reply] band B

[ask] Sort into band: O=C1NC(=O)C(=Cc2ccc(N3CCOCC3)o2)C(=O)N1
[reply] band C

[ask] Sort into band: O=C1NC(=Nc2cccnc2)S/C1=C/c1ccc(F)cc1
[reply] band B

[ask] Sort into band: CC1OC(OC2CC(O)C3(CO)C4C(O)CC5(C)C(C6=CC(=O)OC6)CCC5(O)C4CCC3(O)C2)C(O)C(O)C1O (stereo not drawn)
[reply] band B

[ask] Sort into band: CC(=O)O[C@H]1C(=O)[C@]2(C)[C@H]([C@H](OC(=O)c3ccccc3)[C@]3(O)C[C@H](OC(=O)[C@H](O)[C@@H](NC(=O)c4ccccc4)c4ccccc4)C(C)=C1C3(C)C)[C@]1(OC(C)=O)CO[C@@H]1C[C@@H]2O
[reply] band A

[ask] Sort into band: Cc1ccc(OCC(=O)Nc2ccc3c(c2)ncn3C)cc1
[reply] band C

[ask] Sort into band: Cc1cc(C(=O)N/N=C/c2ccc3c(c2)OCO3)c2ccccc2n1
[reply] band B

[ask] Sort into band: CC1(C)OC(c2ccccc2)=C/C(=C/C=C2C(=O)NC(=O)NC2=O)O1
[reply] band C

[ask] Sort into band: COc1ccc(C(=O)c2cc([N+](=O)[O-])ccc2N2CCN(C)CC2)cc1
[reply] band B

[ask] Sort into band: COc1ccc(OC)c(Nc2cc(C)nc3ccc(C)cc23)c1
[reply] band C

[ask] Sort into band: O=C(Nc1ccc(Cl)cn1)c1cccc2ccccc12
[reply] band B

[ask] Sort into band: COc1ccc(O)c(/C=N/NC(=O)c2ccc(N3CCCC3=O)cc2)c1
[reply] band B

[ask] Sort into band: O=C(/C=C/c1ccco1)NC(=S)Nc1nc(-c2ccc3ccccc3c2)cs1
[reply] band B

[ask] Sort into band: CCCOc1cc(N(CC)CC)ccc1/C=C(/C#N)c1nc2ccc(C)cc2[nH]1
[reply] band B

[ask] Sort into band: COc1cc(C2CC(=O)N(c3ccc(C)cc3)C(=O)C2)cc(OC)c1OC
[reply] band A

[ask] Sort into band: CC(=O)N1CCc2c(sc(NC(=O)c3ccc4c(c3)OCCO4)c2C#N)C1
[reply] band B

[ask] Sort into band: Fc1ccc(/C=N/NC(=S)Nc2ccc(Cl)cc2Cl)cc1
[reply] band C
